assay: Plasmodium falciparum growth inhibition, primary screen, strain 3D7, DAPI fluorescence, 100 nL (AID 1184);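 note: parasites grown inside human red blood cells in medium with human serum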
reported-conditions: P. falciparum 3D7 growth, 3 d, higher = more signal
Quick reference for z-score among some compounds
measured-endpoint: z-score

>>> test_result("O=C1C2C=CC(C(O)c3ccc(-c4ccccc4)s3)N(n3cnnc3)C2C(=O)N1Cc1ccccc1 (stereo not drawn)")
-0.802
>>> test_result("CCOC(=O)C1=CC[C@@H](c2ccccc2)N(S(=O)(=O)c2ccc(C)cc2)[C@H]1C(=O)OCC")
-0.799
>>> test_result("C=CC[C@@]1(C(=O)O)N=C(c2ccc(OCCCO)cc2)O[C@@H]1c1ccccc1N=[N+]=[N-]")
-0.814
